Subject of test: T1, cynomolgus monkey EL (cynomolgus monkey)
T1 construct: Heparin extract; also called cynomolgus EL; Cynomolgus EL
Experimental details: Biacore; EL captured by anti-C2-tag Ab; bivalent fit
Field: pKd. Provide a value for each of the binders that follow.
Answers are plain numbers, as −log10 of the molar value.

Past entries and their recorded results:
Binder: 55A1 (antibody, mouse IgG2a, V domains shown, mouse IgG2a from hybridoma; also called 55A1 (mouse mAb)) VH: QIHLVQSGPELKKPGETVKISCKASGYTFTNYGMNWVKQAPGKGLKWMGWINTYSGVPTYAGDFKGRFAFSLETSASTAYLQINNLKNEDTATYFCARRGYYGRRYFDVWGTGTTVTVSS VL: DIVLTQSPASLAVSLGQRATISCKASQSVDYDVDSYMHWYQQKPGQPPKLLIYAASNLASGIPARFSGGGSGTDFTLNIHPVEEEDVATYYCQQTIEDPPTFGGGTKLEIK
pKd: 8.77
//
Binder: 16B3 (antibody, mouse IgG2a, V domains shown, mouse IgG2a from hybridoma; also called 16B3 (mouse mAb)) VH: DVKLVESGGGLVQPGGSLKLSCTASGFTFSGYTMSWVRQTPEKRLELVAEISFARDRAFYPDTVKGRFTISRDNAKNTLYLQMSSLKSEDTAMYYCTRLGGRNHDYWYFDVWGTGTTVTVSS VL: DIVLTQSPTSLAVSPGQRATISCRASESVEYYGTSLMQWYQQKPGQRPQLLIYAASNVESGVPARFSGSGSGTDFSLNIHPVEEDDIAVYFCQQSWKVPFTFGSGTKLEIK
pKd: 8.68

Specify reported pKd for the binder shown: 14A1 (antibody, mouse IgG1, V domains shown, mouse IgG1 from hybridoma) VH: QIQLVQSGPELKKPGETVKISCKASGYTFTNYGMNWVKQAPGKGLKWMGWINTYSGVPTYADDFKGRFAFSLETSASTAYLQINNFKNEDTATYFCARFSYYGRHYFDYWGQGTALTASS VL: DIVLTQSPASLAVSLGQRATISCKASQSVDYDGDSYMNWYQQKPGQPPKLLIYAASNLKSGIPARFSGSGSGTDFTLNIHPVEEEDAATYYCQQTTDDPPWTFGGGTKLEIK 8.41
